The measured values listed here are drawn from paper PMC12356538.

# Test system: SARS-CoV-2 SL1 RNA (SL1 wt)
# Assay type: binding
# Particulars: 10 μM SL1 wt, 200 μM ligand, pH 6.2
Quick reference for wLOGSY factor among some molecules

- Item smiles: "CNC(=O)Nc1nc2ccc(OC)cc2s1"
  wLOGSY factor: 0.78
- Item smiles: "COc1ccc2nc(NC(=O)CN3CCC[C@@H](N)C3)sc2c1"
  wLOGSY factor: 1.01
- Item smiles: "COc1ccc2nc(NC(=O)CN3CCN(C)CC3)[nH]c2c1"
  wLOGSY factor: 0.68
- Item smiles: "COc1ccc2nc(NC(=O)CN3CCC[C@@H](NCc4cccc(O)c4)C3)sc2c1"
  wLOGSY factor: 0.00
- Item smiles: "COc1ccc2nc(NC(=O)CN3CCC[C@H](NCc4cccc(O)c4)C3)sc2c1"
  wLOGSY factor: 0.00
- Item smiles: "COc1ccc2nc(N(C)C(=O)CN(C)C)sc2c1"
  wLOGSY factor: 2.15
- Item smiles: "COc1cc(OC)c2nc(NC(=O)CN3CCC[C@@H](N)C3)sc2c1"
  wLOGSY factor: 0.00
- Item smiles: "COc1cc(OC)c2nc(NC(=O)CN3CCC[C@H](N)C3)sc2c1"
  wLOGSY factor: 0.00
- Item smiles: "CSc1ccc2nc(NC(=O)CN(C)C)sc2c1"
  wLOGSY factor: 0.46
- Item smiles: "CN(C)CC(=O)Nc1nnc(-c2ccc([N+](=O)[O-])cc2)s1"
  wLOGSY factor: 0.90
- Item smiles: "CNC(=N)Nc1nc2ccc(OC)cc2s1"
  wLOGSY factor: 1.21
- Item smiles: "CCN(CCN[C@@H]1CCCN(CC(=O)Nc2nc3ccc(OC)cc3s2)C1)c1cccc(O)c1"
  wLOGSY factor: 0.00
- Item smiles: "CN(C)CC(=O)Nc1nc2ccc(Br)cc2s1"
  wLOGSY factor: 0.74
